experiment: Spectroscopic measurements (absorption, emission, quantum yield, extinction coefficient)
Format: physicochemical
experimental.conditions: BDNCA library, absorption
# key: entry, value: Abs
Note: state the figure and append the unit.

substance_smiles=COc1cc(/C=C/C2=[N+]3C(=C(c4ccc(NC(=O)CCl)cc4)c4cccn4[B-]3(F)F)C(C)=C2)c(OCc2ccccc2)cc1OC measurement_label=Abs result_value="583 nm"
substance_smiles=CC1=CC(/C=C/c2c(Br)ccc3c2OCO3)=[N+]2C1=C(c1ccc(NC(=O)CCl)cc1)c1cccn1[B-]2(F)F measurement_label=Abs result_value="561 nm"
substance_smiles=Cc1cccc(/C=C/c2cc(C)c3n2[B-](F)(F)[N+]2=CC=CC2=C3c2ccc(NC(=O)CCl)cc2)c1 measurement_label=Abs result_value="556 nm"

# evaluate next
**Q:** Give its Abs value. Item: COc1cccc(/C=C/C2=[N+]3C(=C(c4ccc(NC(=O)CCl)cc4)c4cccn4[B-]3(F)F)C(C)=C2)c1OC
**A:** 557 nm

====

Readings of Abs for the listed molecules
experiment: Spectroscopic measurements (absorption, emission, quantum yield, extinction coefficient)
Type: physicochemical
experimental.conditions: BDNCA library, absorption
# number only, unit nm dropped from output

Use these answered entries as a reference point.
substance_smiles=COc1ccc(Oc2cccc(/C=C/C3=[N+]4C(=C(c5ccc(NC(=O)CCl)cc5)c5cccn5[B-]4(F)F)C(C)=C3)c2)cc1 result_value=556
substance_smiles=COc1cc(OC)c(/C=C/C2=[N+]3C(=C(c4ccc(NC(=O)CCl)cc4)c4cccn4[B-]3(F)F)C(C)=C2)c(OC)c1 result_value=582
substance_smiles=C=CCOc1ccc(/C=C/C2=[N+]3C(=C(c4ccc(NC(=O)CCl)cc4)c4cccn4[B-]3(F)F)C(C)=C2)cc1 result_value=566
substance_smiles=COc1ccc(/C=C/C2=[N+]3C(=C(c4ccc(NC(=O)CCl)cc4)c4cccn4[B-]3(F)F)C(C)=C2)cc1Cl result_value=563
substance_smiles=COc1ccc(/C=C/c2cc(C)c3n2[B-](F)(F)[N+]2=CC=CC2=C3c2ccc(NC(=O)CCl)cc2)c(O)c1 result_value=577

**Q:** Item CC1=CC(/C=C/c2ccc(Cl)cc2Cl)=[N+]2C1=C(c1ccc(NC(=O)CCl)cc1)c1cccn1[B-]2(F)F has what recorded Abs?
**A:** 557

====

Here the recorded Qunt. Yield is given for each entry.
experiment: Spectroscopic measurements (absorption, emission, quantum yield, extinction coefficient)
Format: physicochemical
experimental.conditions: quantum yield, BDNCA library

substance_smiles=COc1cc(O)c(/C=C/C2=[N+]3C(=C(c4ccc(NC(=O)CCl)cc4)c4cccn4[B-]3(F)F)C(C)=C2)c(OC)c1 result_value=0.02
substance_smiles=CC1=CC(/C=C/c2ncc[nH]2)=[N+]2C1=C(c1ccc(NC(=O)CCl)cc1)c1cccn1[B-]2(F)F result_value=0.01
substance_smiles=Cc1cc(/C=C/c2cc(F)ccc2O)n2c1C(c1ccc(NC(=O)CCl)cc1)=C1C=CC=[N+]1[B-]2(F)F result_value=0.02
substance_smiles=CC1=CC(/C=C/c2c[nH]c3ccccc23)=[N+]2C1=C(c1ccc(NC(=O)CCl)cc1)c1cccn1[B-]2(F)F result_value=0.02
substance_smiles=COc1cccc(/C=C/C2=[N+]3C(=C(c4ccc(NC(=O)CCl)cc4)c4cccn4[B-]3(F)F)C(C)=C2)c1F result_value=0.11
substance_smiles=CC1=CC(/C=C/c2cccs2)=[N+]2C1=C(c1ccc(NC(=O)CCl)cc1)c1cccn1[B-]2(F)F result_value=0.10

**Q:** Look at this compound and give its reported Qunt. Yield. CC1=CC(/C=C/c2ccc(-c3ccccc3)c(F)c2)=[N+]2C1=C(c1ccc(NC(=O)CCl)cc1)c1cccn1[B-]2(F)F
**A:** 0.11

====

Flu-Abs reference
experiment: Spectroscopic measurements (absorption, emission, quantum yield, extinction coefficient)
Type: physicochemical
experimental.conditions: BDNCA library, difference emission minus absorption
Provide a numeric answer; units are not to be included.

molecule="CC1=CC(/C=C/c2ccc3c(c2)OCO3)=[N+]2C1=C(c1ccc(NC(=O)CCl)cc1)c1cccn1[B-]2(F)F [BDNCA-139]" measurement_label=Flu-Abs result_value=39

**Q:** Look up Flu-Abs for this molecule: CC1=CC(/C=C/c2c(C)c(C)c(C)c(C)c2C)=[N+]2C1=C(c1ccc(NC(=O)CCl)cc1)c1cccn1[B-]2(F)F [BDNCA-67]
**A:** 40

**Q:** So what does the record say about Flu-Abs for CCOC(OCC)c1ccc(/C=C/C2=[N+]3C(=C(c4ccc(NC(=O)CCl)cc4)c4cccn4[B-]3(F)F)C(C)=C2)cc1 [BDNCA-49] ?
**A:** 17

====

experiment: Spectroscopic measurements (absorption, emission, quantum yield, extinction coefficient)
Format: physicochemical
experimental.conditions: BDNCA library, extinction coefficient; in M-1 cm-1 (unit assumed)
measurement.label: ε

Field: example entries. Status: answers known.
substance_smiles=COc1cc(Br)cc(/C=C/C2=[N+]3C(=C(c4ccc(NC(=O)CCl)cc4)c4cccn4[B-]3(F)F)C(C)=C2)c1OC result_value=63,707
substance_smiles=CC1=CC(/C=C/c2ccc(O)c([N+](=O)[O-])c2)=[N+]2C1=C(c1ccc(NC(=O)CCl)cc1)c1cccn1[B-]2(F)F result_value=18,124

**Q:** Which measured ε value corresponds to CC1=CC(/C=C/c2ccc(OC(C)(C)C)cc2)=[N+]2C1=C(c1ccc(NC(=O)CCl)cc1)c1cccn1[B-]2(F)F ?
**A:** 35,973

**Q:** Quick one: ε for COc1cc(/C=C/C2=[N+]3C(=C(c4ccc(NC(=O)CCl)cc4)c4cccn4[B-]3(F)F)C(C)=C2)c(OCc2ccccc2)cc1OC ?
**A:** 59,863

**Q:** Which ε is reported for this molecule? CC1=CC(/C=C/c2cccc3c2OCO3)=[N+]2C1=C(c1ccc(NC(=O)CCl)cc1)c1cccn1[B-]2(F)F
**A:** 33,227

**Q:** I would be grateful if you could share the reported ε for Cc1cc(/C=C/c2ccccc2C(=O)O)n2c1C(c1ccc(NC(=O)CCl)cc1)=C1C=CC=[N+]1[B-]2(F)F .
**A:** 24,714

**Q:** Quick check: ε of COc1cc(/C=C/C2=[N+]3C(=C(c4ccc(NC(=O)CCl)cc4)c4cccn4[B-]3(F)F)C(C)=C2)cc(Cl)c1OC ?
**A:** 63,158

**Q:** For the molecule Cc1cc(/C=C/c2ccc(Oc3ccc(C=O)cc3)cc2)n2c1C(c1ccc(NC(=O)CCl)cc1)=C1C=CC=[N+]1[B-]2(F)F , what ε is on record?
**A:** 18,673

**Q:** What does the record list as ε for COc1cc(Cl)c(/C=C/C2=[N+]3C(=C(c4ccc(NC(=O)CCl)cc4)c4cccn4[B-]3(F)F)C(C)=C2)c(Cl)c1O ?
**A:** 40,915

**Q:** Need ε of CCCc1ccc(/C=C/C2=[N+]3C(=C(c4ccc(NC(=O)CCl)cc4)c4cccn4[B-]3(F)F)C(C)=C2)cc1 , thanks.
**A:** 45,034

**Q:** # get_value(readout='ε', item= CC1=CC(/C=C/c2ccoc2)=[N+]2C1=C(c1ccc(NC(=O)CCl)cc1)c1cccn1[B-]2(F)F )
**A:** 43,661

**Q:** GET /values?readout=ε&item= Cc1ccc(/C=C/c2cc(C)c3n2[B-](F)(F)[N+]2=CC=CC2=C3c2ccc(NC(=O)CCl)cc2)s1
**A:** 72,220

**Q:** I am curious: what ε value has been reported for CC1=CC(/C=C/c2c[nH]c3ccc(Br)cc23)=[N+]2C1=C(c1ccc(NC(=O)CCl)cc1)c1cccn1[B-]2(F)F ?
**A:** 29,931

**Q:** // returns reported ε for input CCCCN(CCCC)c1ccc(/C=C/C2=[N+]3C(=C(c4ccc(NC(=O)CCl)cc4)c4cccn4[B-]3(F)F)C(C)=C2)cc1
**A:** 52,998

**Q:** What value of ε has been reported for the following molecule? COc1ccc(/C=C/c2cc(C)c3n2[B-](F)(F)[N+]2=CC=CC2=C3c2ccc(NC(=O)CCl)cc2)c(Br)c1O
**A:** 49,703

**Q:** Could you share which ε value was measured for CCOc1cccc(/C=C/C2=[N+]3C(=C(c4ccc(NC(=O)CCl)cc4)c4cccn4[B-]3(F)F)C(C)=C2)c1O ?
**A:** 37,071

**Q:** Would you mind telling me what ε value was observed for CC1=CC(/C=C/c2ccc(C(C)C)cc2)=[N+]2C1=C(c1ccc(NC(=O)CCl)cc1)c1cccn1[B-]2(F)F ?
**A:** 61,236

**Q:** Form field: reported ε of CCCCc1ccc(/C=C/C2=[N+]3C(=C(c4ccc(NC(=O)CCl)cc4)c4cccn4[B-]3(F)F)C(C)=C2)cc1
**A:** 124,394

**Q:** Report ε for Cc1cc(/C=C/c2cccc(Br)c2O)n2c1C(c1ccc(NC(=O)CCl)cc1)=C1C=CC=[N+]1[B-]2(F)F please.
**A:** 52,449

**Q:** Fill blank: measured ε of the molecule CC1=CC(/C=C/c2ccc(-c3ccccn3)cc2)=[N+]2C1=C(c1ccc(NC(=O)CCl)cc1)c1cccn1[B-]2(F)F is ____.
**A:** 27,185

**Q:** Sample CC1=CC(/C=C/c2cc(C)c(OCc3ccccc3)c(C)c2)=[N+]2C1=C(c1ccc(NC(=O)CCl)cc1)c1cccn1[B-]2(F)F — what was its ε?
**A:** 55,469

**Q:** Returns the measured ε for the input molecule. Input: COc1ccc(/C=C/c2cc(C)c3n2[B-](F)(F)[N+]2=CC=CC2=C3c2ccc(NC(=O)CCl)cc2)cc1
**A:** 56,568
